// values below are reported log10 of EC50
Target: Androgen receptor (Homo sapiens)
Sequence (P10275 whole entry): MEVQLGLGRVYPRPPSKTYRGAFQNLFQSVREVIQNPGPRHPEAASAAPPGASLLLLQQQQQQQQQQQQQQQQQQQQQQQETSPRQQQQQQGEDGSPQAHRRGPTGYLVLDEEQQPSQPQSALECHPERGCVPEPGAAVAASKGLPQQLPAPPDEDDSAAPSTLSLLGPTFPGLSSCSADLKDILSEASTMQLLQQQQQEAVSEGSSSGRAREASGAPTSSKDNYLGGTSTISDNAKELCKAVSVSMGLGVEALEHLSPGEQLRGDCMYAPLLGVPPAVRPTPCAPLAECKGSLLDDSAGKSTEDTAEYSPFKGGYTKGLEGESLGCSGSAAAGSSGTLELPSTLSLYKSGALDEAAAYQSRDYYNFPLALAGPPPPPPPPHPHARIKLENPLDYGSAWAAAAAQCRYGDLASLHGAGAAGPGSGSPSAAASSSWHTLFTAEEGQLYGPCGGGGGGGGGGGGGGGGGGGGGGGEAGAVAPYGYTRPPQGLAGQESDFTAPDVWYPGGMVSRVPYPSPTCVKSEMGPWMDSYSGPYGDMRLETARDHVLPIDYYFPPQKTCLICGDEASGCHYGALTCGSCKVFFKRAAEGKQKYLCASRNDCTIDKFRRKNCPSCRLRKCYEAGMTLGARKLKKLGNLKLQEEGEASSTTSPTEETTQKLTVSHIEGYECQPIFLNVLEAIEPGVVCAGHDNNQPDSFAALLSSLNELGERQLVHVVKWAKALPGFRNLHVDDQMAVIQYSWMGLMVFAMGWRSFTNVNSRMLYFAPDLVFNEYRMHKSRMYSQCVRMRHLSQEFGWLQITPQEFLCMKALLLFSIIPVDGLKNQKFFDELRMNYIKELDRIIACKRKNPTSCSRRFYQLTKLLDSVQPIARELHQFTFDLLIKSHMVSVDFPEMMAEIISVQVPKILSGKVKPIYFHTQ
Assay: Modulation of human androgen receptor expressed in African green monkey CV1 cells after 24 hrs by luciferase reporter gene assay
Note: values are log10 of EC50 expressed in nM.

> print(dat)
                                   molecule  measured.value
1  Cc1c(C(C)(O)C(F)(F)F)ccc(C#N)c1C(F)(F)F (configuration not stated)            0.60
2  Cc1c(C(O)(c2ccco2)C(F)(F)F)ccc(C#N)c1C(F)(F)F (configuration not stated)           -0.60
3  CC(C)C(O)(c1ccc(C#N)c(C(F)(F)F)c1)C(F)(F)F (configuration not stated)            0.90
4  Cc1c(C(O)(C2CC2)C(F)(F)F)ccc(C#N)c1C(F)(F)F (configuration not stated)           -1.50
5  Cc1c(C(O)(c2cocn2)C(F)(F)F)ccc(C#N)c1C(F)(F)F (configuration not stated)           -0.30
6  CC(C)(C)C(O)(c1ccc(C#N)c(Cl)c1)C(F)(F)F (configuration not stated)            2.20
7  N#Cc1ccc(C(O)(C2CC2)C(F)(F)F)cc1C(F)(F)F (configuration not stated)           -0.80
8  Cc1c(C(O)(C#CC2CC2)C(F)(F)F)ccc(C#N)c1Cl (configuration not stated)            1.20

# get_value(readout='log10 of EC50', item= Cc1c(C(O)(C(C)C)C(F)(F)F)ccc(C#N)c1C(F)(F)F (configuration not stated) )
-0.60

# get_value(readout='log10 of EC50', item= `N#Cc1ccc(C(O)(C(F)(F)F)C(F)(F)F)cc1C(F)(F)F` )
1.20

# get_value(readout='log10 of EC50', item= Cc1c(C(O)(c2ccc(Cl)o2)C(F)(F)F)ccc(C#N)c1C(F)(F)F (configuration not stated) )
0.46

# get_value(readout='log10 of EC50', item= Cc1c(C(O)(c2ccc(Cl)s2)C(F)(F)F)ccc(C#N)c1C(F)(F)F (configuration not stated) )
0.75

# get_value(readout='log10 of EC50', item= N#Cc1ccc(C(O)(C2CCC2)C(F)(F)F)c(Cl)c1Cl (configuration not stated) )
-0.20

# get_value(readout='log10 of EC50', item= N#Cc1ccc(C(O)(C2CC2)C(F)(F)F)cc1Cl (configuration not stated) )
-0.40

# get_value(readout='log10 of EC50', item= N#Cc1ccc(C(O)(c2ccco2)C(F)(F)F)cc1C(F)(F)F (configuration not stated) )
0.10

# get_value(readout='log10 of EC50', item= Cc1c(C(O)(CC(C)(C)C)C(F)(F)F)ccc(C#N)c1Cl (configuration not stated) )
0.60

# get_value(readout='log10 of EC50', item= N#Cc1ccc(C(O)(c2ccc(Cl)o2)C(F)(F)F)cc1C(F)(F)F (configuration not stated) )
0.40

* * *

Assay: Oral bioavailability in Wistar Han rat at 10 mg/kg, administered as single dose via oral gavage by LC-MS/MS analysis
Format: ADME, organism-based
Conditions: in vivo
// values below are reported bioavailability

Recorded results for 3 compounds are shown here.
> print(dat)
                                   compound  measured.value
1  CCC(O)(c1ccc(C#N)c(C(F)(F)F)c1)C(F)(F)F (stereo unspecified)             70%
2  N#Cc1ccc(C(O)(C2CC2)C(F)(F)F)cc1C(F)(F)F (stereo unspecified)             86%
3  Cc1c(C(O)(c2cocn2)C(F)(F)F)ccc(C#N)c1C(F)(F)F (stereo unspecified)            100%

# get_value(readout='bioavailability', item= N#Cc1ccc(C(O)(C2CC2)C(F)(F)F)cc1Cl (stereo unspecified) )
80%

# get_value(readout='bioavailability', item= N#Cc1ccc(C(O)(c2cocn2)C(F)(F)F)cc1C(F)(F)F (stereo unspecified) )
83%

# get_value(readout='bioavailability', item= Cc1c(C(O)(C2CC2)C(F)(F)F)ccc(C#N)c1C(F)(F)F (stereo unspecified) )
37%
